MEASUREMENT TARGET: T1, NPFF-R1 (UniProt Q9GZQ6 1-430)
T1 construct: also called NPFF-1R; source: CHO-K1 cell line, bought: Perkin Elmer
T1 sequence (Q9GZQ6 whole entry): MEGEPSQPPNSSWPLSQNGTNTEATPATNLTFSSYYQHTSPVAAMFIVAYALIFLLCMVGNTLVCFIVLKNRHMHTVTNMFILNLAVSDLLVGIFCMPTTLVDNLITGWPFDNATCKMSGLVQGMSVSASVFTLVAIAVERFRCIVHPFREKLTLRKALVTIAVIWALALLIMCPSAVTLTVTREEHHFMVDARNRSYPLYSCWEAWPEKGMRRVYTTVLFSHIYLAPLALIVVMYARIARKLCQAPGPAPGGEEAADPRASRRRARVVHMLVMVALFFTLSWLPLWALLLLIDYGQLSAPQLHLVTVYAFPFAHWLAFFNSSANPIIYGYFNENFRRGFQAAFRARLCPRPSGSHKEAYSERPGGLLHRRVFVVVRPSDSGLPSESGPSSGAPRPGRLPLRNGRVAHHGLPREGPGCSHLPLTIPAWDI
TEST DETAILS: radioligand binding; saturation with [^125I]-1DMe on membranes from CHO-K1 cells expressing NPFF-R1
RUN PARAMETERS: one partner purified
pKd: −log10 of the molar value. Non-standard residues stand in square brackets, D forms with d. No end group written: not given here. *: point of attachment. NMeF = CN[C@@H](Cc1ccccc1)C(=O)O; 125I = [125I]*

>  <BINDER>
[dY](125I)L[NMeF]QPQRF-NH2 (1DMe iodinated at D-Tyr1; numbers count on: the peptide) [[^125I]-1DMe]

>  <pKd>
9.03

$$$$

Where these numbers come from: paper PMC8396344
